System: Human alphaherpesvirus 2
Test: Antiviral activity against herpes simplex virus-2.
Assay type: functional, organism-based
Experimental endpoint: IC50

// lookup IC50 for `Cc1ccc(O)c2c(O)ccnc12`
> 100 µM

// lookup IC50 for `Oc1cccc2nccc(O)c12`
83 µM

// lookup IC50 for `COc1cc(C(F)(F)F)cc2nccc(O)c12`
> 100 µM

// lookup IC50 for `COc1cc2c(=O)ccn(C)c2cc1OC`
> 100 µM

// lookup IC50 for `Nc1nc2c(ncn2COCCO)c(=O)[nH]1`
2.1 µM

// lookup IC50 for `COc1cc2nccc(O)c2c(O)c1OC`
> 100 µM

// lookup IC50 for `COc1ccc2c(O)ccnc2c1`
> 100 µM
